Target: human A2A receptor (A2AR) (Homo sapiens, UniProt P29274)
Sequence (P29274 whole entry): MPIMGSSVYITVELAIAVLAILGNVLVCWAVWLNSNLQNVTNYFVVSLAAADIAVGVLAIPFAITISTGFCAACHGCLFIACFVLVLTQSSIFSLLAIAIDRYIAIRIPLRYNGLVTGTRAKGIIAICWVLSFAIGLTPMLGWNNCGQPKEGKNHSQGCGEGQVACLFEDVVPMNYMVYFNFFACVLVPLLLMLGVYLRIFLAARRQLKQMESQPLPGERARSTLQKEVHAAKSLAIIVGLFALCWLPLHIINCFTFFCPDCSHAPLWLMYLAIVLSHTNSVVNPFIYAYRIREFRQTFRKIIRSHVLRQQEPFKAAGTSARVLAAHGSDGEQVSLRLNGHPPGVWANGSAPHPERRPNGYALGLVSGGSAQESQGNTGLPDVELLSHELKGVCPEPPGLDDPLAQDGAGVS
Assay: Luciferase reporter assay (HEK293-A2AR-luc2p/CRE/Hygro cells, 3 nM CGS21680)
Details: 3 nM CGS21680, 5 h incubation
Procedure: HEK293 cells were maintained in Dulbecco's modified Eagle's medium (DMEM, Gibco) supplemented with 10% fetal bovine serum (FBS, Thermo Scientific), 100 units/mL penicillin (Gibco), and 0.1 mg/mL streptomycin (Gibco) in a humidified 37° C. environment with 5% C02. Plasmid encoding wild-type human A2A receptor (A2AR) (in pcDNA3.1) was synthesized by Genscript (Nanjing, China). […] Expression level of A2AR in each single cell clone was determined using immunoblotting and FACS method. […]
Result Type: pIC50
Remember the convention: pIC50 equals -log10 of concentration in molar.

# example entries with known answers
Compound	pIC50
COCCOc1ccc(N2CCN(C(=O)[C@](C)(c3ccccc3)n3ncc4c3nc(N)n3nc(-c5ccco5)nc43)CC2)cc1 [Compound A63a]	8.10
COCCOc1ccc(N2CCN(C(=O)C(C)(c3ccccc3C)n3ncc4c3nc(N)n3nc(-c5ccco5)nc43)CC2)cc1 (stereo not drawn)	8.77

--- query ---
**Q:** Returns the measured pIC50 for the input compound. Input: COCCOc1ccc(N2CCN(C(=O)C(C)(c3ccccc3)n3ncc4c3nc(N)n3nc(-c5ccco5)nc43)C[C@@H]2C)cc1 (stereo partly drawn)
**A:** 8.29

Numbers sourced from patent US20210300936A1.
